Hi there, I'd appreciate the recorded polymerase ribozyme fitness (log ratio) for every entry that follows.
B1: TPR t1 (parent)
chain: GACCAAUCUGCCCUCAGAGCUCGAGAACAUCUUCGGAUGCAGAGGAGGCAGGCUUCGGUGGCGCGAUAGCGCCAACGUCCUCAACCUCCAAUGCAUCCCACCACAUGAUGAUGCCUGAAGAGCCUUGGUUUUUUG

Variants of: B1
Test: polymerase ribozyme fitness, log enrichment relative to wild type (log ratio); higher = more active; in vitro selection for triplet polymerase activity
One number for each entry.

In [3]: df
Out[3]:
    variant_description  numeric_value
0  G10U G77A G93U U129C          -2.07
1            C86U U130C         0.0697
2  C12A A18C G77C A121U         -0.381

Give one value of polymerase ribozyme fitness (log ratio) per listed variant.
1. G57C U125A
2. A46G

(A)
1: -0.636; 2: -0.119

Give one value of polymerase ribozyme fitness (log ratio) per listed variant.
1. C70U C97A
2. C12A G127U
3. U21G A119G
4. G10A U55G
5. G45C C53G C73A
6. C15A A41C C72A

(A)
-4.6
-1.39
-0.142
-0.319
-0.795
-2.94

Give one value of polymerase ribozyme fitness (log ratio) per listed variant.
1. C12U A26G G45A A84U U132C
2. C3U C72U C98A
3. C13G G17C A75U U87G U96A C104U
4. C15A A37G G45U C72A G93U U112C G122C C123G U125A
5. A6C A16C G44C
6. C40U C76U G117A

(A)
1. -3.75
2. -5.34
3. -5.5
4. -3.59
5. -3.74
6. -2.16
